test: Aqueous solubility of compound at pH 7.4 incubated for 24 hrs under shaking condition by HPLC method; assay type: physicochemical; conditions: buffer
assay.endpoint: solubility thermodynamic at 24 h (µg/mL)
Answers are plain numbers, in µg/mL.

Fill in solubility thermodynamic at 24 h for each of the 2 compounds listed.
1. Cc1cc(/C=C/C#N)cc(C)c1Oc1ccnc(NC2CCN(Cc3cn(CC(=O)NC4CC4)nn3)CC2)n1
2. Cc1cc(/C=C/C#N)cc(C)c1Oc1nc(NC2CCN(Cc3cn(CC(=O)NC4CCOCC4)nn3)CC2)nc2sccc12

1. 85
2. 23.1

Fill in solubility thermodynamic at 24 h for each of the 3 compounds listed.
1. CCNC(=O)Cn1cc(CN2CCC(Nc3nc(Oc4c(C)cc(/C=C/C#N)cc4C)c4ccsc4n3)CC2)nn1
2. CNC(=O)Cn1cc(CN2CCC(Nc3nc(Oc4c(C)cc(/C=C/C#N)cc4C)c4ccsc4n3)CC2)nn1
3. Cc1cc(/C=C/C#N)cc(C)c1Oc1nc(NC2CCN(Cc3cn(CC(N)=O)nn3)CC2)nc2sccc12

1: 22.6; 2: 20.1; 3: 20.1

====

For each record, write down the corresponding selectivity ratio.
experiment: Selectivity index, ratio of CC50 for human MT4 cells to EC50 for antiviral activity against HIV1 IIIB infected in MT4 cells; assay type: toxicity, cell-based; conditions: read-out: Ratio CC50/EC50
One number for each entry.

Cc1cc(/C=C/C#N)cc(C)c1Oc1nc(NC2CCN(Cc3cn(CC(=O)NC4CCOCC4)nn3)CC2)nc2sccc12 : 4980
CCNC(=O)Cn1cc(CN2CCC(Nc3nc(Oc4c(C)cc(/C=C/C#N)cc4C)c4ccccc4n3)CC2)nn1 : 4230
CNC(=O)Cn1cc(CN2CCC(Nc3nc4c(c(Oc5c(C)cc(/C=C/C#N)cc5C)n3)COC4)CC2)nn1 : 31300

Moving on to another molecule below.
Please give the measured selectivity ratio for this molecule: CNC(=O)Cn1cc(CN2CCC(Nc3nc(Oc4c(C)cc(/C=C/C#N)cc4C)c4sccc4n3)CC2)nn1
4720

====

test: Cytotoxicity against human MT4 cells assessed as reduction in cell viability incubated for 5 days by MTT method; format: toxicity, cell-based; conditions: time 5 day
Note to self: use yes only for CC50 at 120 h readings below 30 µM; a reading exactly at 30 µM still gets no.

Recorded results for 6 compounds are shown here.
Cc1cc(/C=C/C#N)cc(C)c1Oc1nc(NC2CCN(Cc3cn(CC(N)=O)nn3)CC2)nc2c1COC2 : no
Cc1cc(/C=C/C#N)cc(C)c1Oc1nc(NC2CCN(Cc3cn(CC(=O)NC4CCOCC4)nn3)CC2)nc2ccccc12 : yes
Cc1cc(C#N)cc(C)c1Oc1ccnc(NC2CCN(Cc3cn(CC(=O)Nc4ccc(S(C)(=O)=O)cc4)nn3)CC2)n1 : yes
Cc1cc(/C=C/C#N)cc(C)c1Oc1ccnc(NC2CCN(Cc3cn(CC(=O)NC4CCOCC4)nn3)CC2)n1 : yes
Cc1cc(C#N)cc(C)c1Oc1ccnc(NC2CCN(Cc3cn(CC(=O)NC4CC4)nn3)CC2)n1 : no
CNC(=O)Cn1cc(CN2CCC(Nc3nc4c(c(Oc5c(C)cc(/C=C/C#N)cc5C)n3)COC4)CC2)nn1 : no

Find out if reported CC50 at 120 h for Cc1cc(/C=C/C#N)cc(C)c1Oc1nc(NC2CCN(Cc3cn(CC(=O)NC4CCOCC4)nn3)CC2)nc2c1COC2 is less than 30 µM
no

====

test: Selectivity index, ratio of CC50 for human MT4 cells to EC50 for antiviral activity against HIV1 IIIB infected in MT4 cells; assay type: toxicity, cell-based; details: read-out: Ratio CC50/EC50
assay.endpoint: selectivity ratio

Cc1cc(/C=C/C#N)cc(C)c1Oc1ccnc(NC2CCN(Cc3cn(CC(N)=O)nn3)CC2)n1 : 21600

Fill in selectivity ratio for each of the 8 molecules listed.
1. Cc1cc(/C=C/C#N)cc(C)c1Oc1nc(NC2CCN(Cc3cn(CC(=O)NC4CCOCC4)nn3)CC2)nc2c1COC2
2. Cc1cc(/C=C/C#N)cc(C)c1Oc1nc(NC2CCN(Cc3cn(CC(N)=O)nn3)CC2)nc2ccccc12
3. CNC(=O)Cn1cc(CN2CCC(Nc3nccc(Oc4c(C)cc(/C=C/C#N)cc4C)n3)CC2)nn1
4. Cc1cc(/C=C/C#N)cc(C)c1Oc1nc(NC2CCN(Cc3cn(CC(=O)NC4CCOCC4)nn3)CC2)nc2ccsc12
5. Cc1cc(/C=C/C#N)cc(C)c1Oc1nc(NC2CCN(Cc3cn(CC(N)=O)nn3)CC2)nc2ccsc12
6. COC(=O)Cn1cc(CN2CCC(Nc3nccc(Oc4c(C)cc(/C=C/C#N)cc4C)n3)CC2)nn1
7. Cc1cc(C#N)cc(C)c1Oc1ccnc(NC2CCN(Cc3cn(CC(=O)NC4CC4)nn3)CC2)n1
8. CCNC(=O)Cn1cc(CN2CCC(Nc3nc(Oc4c(C)cc(/C=C/C#N)cc4C)c4sccc4n3)CC2)nn1

10400
3300
19600
3060
3000
732
12500
3640

Fill in selectivity ratio for each of the 4 molecules listed.
1. Cc1cc(/C=C/C#N)cc(C)c1Oc1nc(NC2CCN(Cc3cn(CC(N)=O)nn3)CC2)nc2sccc12
2. CCNC(=O)Cn1cc(CN2CCC(Nc3nccc(Oc4c(C)cc(/C=C/C#N)cc4C)n3)CC2)nn1
3. Cc1cc(/C=C/C#N)cc(C)c1Oc1nc(NC2CCN(Cc3cn(CC(=O)NC4CC4)nn3)CC2)nc2sccc12
4. Cc1cc(/C=C/C#N)cc(C)c1Oc1ccnc(NC2CCN(Cc3cn(CC(=O)NC4CCOCC4)nn3)CC2)n1

1: 14500; 2: 14800; 3: 3520; 4: 4560

Fill in selectivity ratio for each of the 2 molecules listed.
1. Cc1cc(/C=C/C#N)cc(C)c1Oc1nc(NC2CCN(Cc3cn(CC(=O)NC4CCOCC4)nn3)CC2)nc2ccccc12
2. COC(=O)CCCn1cc(CN2CCC(Nc3nccc(Oc4c(C)cc(C#N)cc4C)n3)CC2)nn1

1. 2300
2. 2060

====

system: Human immunodeficiency virus 1; test: Antiviral activity against HIV1 IIIB harboring E138K mutant infected in MT4 cells assessed as reduction in virus induced cytopathic effect incubated for 5 days by MTT method; type: functional, organism-based; conditions: Human immunodeficiency virus 1, IIIB, MT4, 120 h
assay.endpoint: EC50 (nM)
One number for each entry, in nM.

For orientation, consider the following solved cases.
COC(=O)CCCn1cc(CN2CCC(Nc3nccc(Oc4c(C)cc(/C=C/C#N)cc4C)n3)CC2)nn1 : 36
CNC(=O)Cn1cc(CN2CCC(Nc3nc(Oc4c(C)cc(/C=C/C#N)cc4C)c4sccc4n3)CC2)nn1 : 14
Cc1cc(/C=C/C#N)cc(C)c1Oc1nc(NC2CCN(Cc3cn(CC(N)=O)nn3)CC2)nc2ccccc12 : 23
Cc1cc(/C=C/C#N)cc(C)c1Oc1nc(NC2CCN(Cc3cn(CC(=O)NC4CC4)nn3)CC2)nc2c1COC2 : 15
Cc1cc(/C=C/C#N)cc(C)c1Oc1nc(NC2CCN(Cc3cn(CC(=O)NC4CC4)nn3)CC2)nc2sccc12 : 22
Cc1cc(C#N)cc(C)c1Oc1ccnc(NC2CCN(Cc3cn(CC(=O)NC4CC4)nn3)CC2)n1 : 28
Cc1cc(/C=C/C#N)cc(C)c1Oc1nc(NC2CCN(Cc3cn(CC(=O)NC4CCOCC4)nn3)CC2)nc2ccsc12 : 20
Cc1cc(/C=C/C#N)cc(C)c1Oc1nc(NC2CCN(Cc3cn(CC(N)=O)nn3)CC2)nc2sccc12 : 14

Fill in EC50 for each of the 3 molecules listed.
1. CNC(=O)Cn1cc(CN2CCC(Nc3nc(Oc4c(C)cc(/C=C/C#N)cc4C)c4ccsc4n3)CC2)nn1
2. CCNC(=O)Cn1cc(CN2CCC(Nc3nc(Oc4c(C)cc(/C=C/C#N)cc4C)c4sccc4n3)CC2)nn1
3. Cc1cc(/C=C/C#N)cc(C)c1Oc1nc(NC2CCN(Cc3cn(CC(N)=O)nn3)CC2)nc2c1COC2

1. 9
2. 33
3. 31

====

experiment: Selectivity index, ratio of CC50 for human MT4 cells to EC50 for antiviral activity against HIV1 IIIB infected in MT4 cells; assay type: toxicity, cell-based; conditions: read-out: Ratio CC50/EC50
assay.endpoint: selectivity ratio

Cc1cc(C#N)cc(C)c1Oc1nc(Nc2ccc(C#N)cc2)nc(N)c1Br [ETRAVIRINE] : > 1090
CCOC(=O)Cn1cc(CN2CCC(Nc3nccc(Oc4c(C)cc(/C=C/C#N)cc4C)n3)CC2)nn1 : 1740
CNC(=O)Cn1cc(CN2CCC(Nc3nc(Oc4c(C)cc(/C=C/C#N)cc4C)c4ccccc4n3)CC2)nn1 : 4020

Moving on to another molecule below.
Please give the measured selectivity ratio for this molecule: CCNC(=O)Cn1cc(CN2CCC(Nc3nc4c(c(Oc5c(C)cc(/C=C/C#N)cc5C)n3)COC4)CC2)nn1
33200
